- Tested on: Escherichia coli TOP10;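 note: peptides expressed intracellularly from a pBAD plasmid library in pooled LB shake-flask culture, induced with 0.3% L-arabinose, DNA abundance read by NGS, three biological replicates, DESeq2 with apeglm shrinkage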
- procedure details: shrunken log2 fold change of peptide-encoding DNA abundance (4.5 h post-induction vs induction); higher = less antimicrobial activity (less host growth inhibition)
- run conditions: time post-induction: 4.5 h; library: site-saturation at positions 5, 18, 19, 20
outcome measure: shrunken log2 fold change
Answers are plain numbers.

RRIRARPPRLPRPRPRPICKPRP : -0.159
RRIRERPPRLPRPRPRPKWLPRP : 0.226
RRIRLRPPRLPRPRPRPQDRPRP : 0.128
RRIRLRPPRLPRPRPRPAWDPRP : 0.0108
RRIRARPPRLPRPRPRPFKSPRP : -0.549
RRIRHRPPRLPRPRPRPPILPRP : -0.0767
RRIRYRPPRLPRPRPRPLYYPRP : -1.44
RRIRCRPPRLPRPRPRPTDYPRP : 1.93

Count: 4. Required value per item: shrunken log2 fold change.
1. RRIRQRPPRLPRPRPRPLDDPRP
2. RRIRGRPPRLPRPRPRPYYVPRP
3. RRIRERPPRLPRPRPRPPDIPRP
4. RRIRPRPPRLPRPRPRPFVLPRP

1: -0.0837; 2: -0.0871; 3: -0.225; 4: -0.352

Dear colleague, could you send me shrunken log2 fold change for each of the items below? Thanks.
1. RRIRARPPRLPRPRPRPLSWPRP
2. RRIRARPPRLPRPRPRPLFEPRP
3. RRIRHRPPRLPRPRPRPILKPRP
4. RRIRVRPPRLPRPRPRPINVPRP
5. RRIRCRPPRLPRPRPRPIDLPRP
6. RRIRWRPPRLPRPRPRPQPAPRP

[0.984, 0.629, -0.348, -0.342, -0.271, 0.812]

Dear colleague, could you send me shrunken log2 fold change for each of the items below? Thanks.
1. RRIRHRPPRLPRPRPRPTAQPRP
2. RRIRKRPPRLPRPRPRPCQMPRP

-0.054
-0.0362
